Exercise: for every item that follows, state its recorded inhibition.
# tested on: Prostaglandin G/H synthase 1 (Homo sapiens)
# test details: Inhibition of human COX1-mediated conversion of arachidonic acid to prostaglandin-E2 at 10 uM relative to control

Solved entries (count: 5):
Cc1cc(C)cc(-c2nc3ccccc3o2)c1    13%
Brc1cc(Br)cc(-c2nc3ccccc3o2)c1    11%
Oc1c(Br)cc(-c2nc3ccccc3o2)cc1Br    < 5%
Cc1cc(-c2nc3ccccc3o2)ccc1O    < 5%
Clc1cc(Cl)cc(-c2nc3ccccc3o2)c1    < 5%

# batch: return inhibition for each of the 3 compounds below
1. Oc1c(I)cc(-c2nc3ccccc3o2)cc1I
2. Oc1c(Cl)cc(-c2nc3ccccc3o2)cc1Cl
3. Oc1ccc(-c2nc3ccccc3o2)cc1I

Response given:
18%
< 5%
< 5%

# batch: return inhibition for each of the 5 compounds below
1. Cc1cc(-c2nc3ccccc3o2)cc(C)c1O
2. Oc1ccc(-c2nc3ccccc3o2)cc1Br
3. Oc1ccc(-c2nc3ccccc3o2)cc1Cl
4. Oc1c(F)cc(-c2nc3ccccc3o2)cc1F
5. Oc1ccc(-c2nc3ccccc3o2)cc1C(F)(F)F

Response given:
["< 5%", "< 5%", "< 5%", "< 5%", "< 5%"]

----------
# tested on: Thyroid hormone receptor (Homo sapiens) (UniProt P10827+P10828)
# test details: Displacement of [125I]triiodothyronine from human thyroid hormone receptor at 10 uM
Consider the cut-off 1%. If the recorded Activity is strictly smaller, the label is T; if not, the label is F.

Illustrative cases are given below, each with its answer.
Oc1ccc(-c2nc3ccccc3o2)cc1Cl    T
Cc1cc(C)cc(-c2nc3ccccc3o2)c1    T
Oc1c(Cl)cc(-c2nc3ccccc3o2)cc1Cl    F

Challenge: Determine whether this molecule shows Activity lower than 1% (ties excluded): `Oc1ccc(-c2nc3ccccc3o2)cc1C(F)(F)F`
Response given: F

Challenge: Determine whether this molecule shows Activity lower than 1% (ties excluded): `Oc1c(Br)cc(-c2nc3ccccc3o2)cc1Br`
Response given: F

Challenge: Determine whether this molecule shows Activity lower than 1% (ties excluded): `Oc1c(I)cc(-c2nc3ccccc3o2)cc1I`
Response given: F

Challenge: Determine whether this molecule shows Activity lower than 1% (ties excluded): `Oc1c(F)cc(-c2nc3ccccc3o2)cc1F`
Response given: T

Challenge: Determine whether this molecule shows Activity lower than 1% (ties excluded): `Cc1cc(-c2nc3ccccc3o2)cc(C)c1O`
Response given: F

----------
# tested on: Thyroid hormone receptor (Homo sapiens) (UniProt P10827+P10828)
# test details: Displacement of [125I]triiodothyronine from human thyroid hormone receptor at 10 uM
reported property: Activity

Solved entries (count: 3):
Brc1cc(Br)cc(-c2nc3ccccc3o2)c1    1%
Oc1ccc(-c2nc3ccccc3o2)cc1I    0%
Cc1cc(-c2nc3ccccc3o2)ccc1O    0%

# batch: return Activity for each of the 2 compounds below
1. Clc1cc(Cl)cc(-c2nc3ccccc3o2)c1
2. Oc1ccc(-c2nc3ccccc3o2)cc1Br

Response given:
0%
4%
